systemTested: RORγt (Homo sapiens, UniProt P51449)
Sequence (P51449 269-508 limits assumed): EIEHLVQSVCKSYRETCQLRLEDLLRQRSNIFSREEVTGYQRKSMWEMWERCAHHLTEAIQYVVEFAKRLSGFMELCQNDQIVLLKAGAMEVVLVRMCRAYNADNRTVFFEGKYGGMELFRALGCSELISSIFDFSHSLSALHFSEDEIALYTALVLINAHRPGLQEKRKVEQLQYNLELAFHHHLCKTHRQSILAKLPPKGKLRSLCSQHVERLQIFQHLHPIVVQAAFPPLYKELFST
assayRemarks: Gal4 ligand binding assay (RORγt Gal fusion reporter assay)
conditionsUsed: inverse agonists, luciferase reporter, 24h
Measured IC50, listed per entry.

cpdSmiles | IC50
CCc1c(F)c(CN2CC3CCC(C2)N3S(C)(=O)=O)cc(F)c1-c1ccc(C(O)(C(F)(F)F)C(F)(F)F)cc1F | < 0.05 µM

Problem: Indicate the recorded IC50 value for this compound: CCc1cc(CN2CC3CCC(C2)N3S(C)(=O)=O)ccc1-c1ccc(C(O)(C(F)(F)F)C(F)(F)F)cn1
Result: 0.05 to 0.25 µM

Problem: Fill in IC50 for record Cc1cc(CN2CC3CCC(C2)N3Cc2ccncc2F)ccc1-c1ccc(C(O)(C(F)(F)F)C(F)(F)F)cc1
Result: 0.05 to 0.25 µM
